Assignment: determine reported pEC50 for the given molecules.
Target: delta receptors, rat brain membranes (Rattus norvegicus, UniProt P33533)
Sequence (P33533 whole entry): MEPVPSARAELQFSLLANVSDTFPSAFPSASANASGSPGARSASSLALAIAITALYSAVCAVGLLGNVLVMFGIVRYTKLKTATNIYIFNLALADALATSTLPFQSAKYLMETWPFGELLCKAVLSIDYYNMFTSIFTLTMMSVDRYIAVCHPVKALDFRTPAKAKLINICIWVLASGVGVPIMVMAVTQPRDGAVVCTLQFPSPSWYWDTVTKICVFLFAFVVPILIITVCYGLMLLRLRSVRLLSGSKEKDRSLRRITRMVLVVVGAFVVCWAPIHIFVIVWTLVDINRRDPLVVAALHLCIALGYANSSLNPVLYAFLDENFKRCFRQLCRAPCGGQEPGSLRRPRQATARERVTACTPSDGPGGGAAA
Assay: GTP[γ]35S binding functional assay, homogenised rat brain
Experimental: • A. Human 293S cells expressing cloned human μ, δ, and κ receptors and neomycin resistance were grown in suspension at 37° C. and 5% CO2 in shaker flasks containing calcium-free DMEM 10% FBS, 5% BCS, 0.1% Pluronic F-68, and 600 μg/ml geneticin. • B. Mouse and rat brains were weighed and rinsed in ice-cold PBS (containing 2.5 mM EDTA, pH 7.4). […]
One number for each entry, as −log10 of the molar value.

{"chemical-structure": "CCN(CC)C(=O)c1ccc(C(=C2CCN(Cc3ccccn3)CC2)c2cccc(C(N)=O)c2)cc1", "pEC50": 9.40}

Could you tell me pEC50 for each of these molecules? They are listed below.
1. CCN(CC)C(=O)c1ccc(C(=C2CCN(Cc3ccco3)CC2)c2cccc(C(N)=O)c2)cc1
2. CCN(CC)C(=O)c1ccc(C(=C2CCN(Cc3cccs3)CC2)c2cccc(C(N)=O)c2)cc1

Result:
1: 9.20; 2: 9.21

Could you tell me pEC50 for each of these molecules? They are listed below.
1. CCN(CC)C(=O)c1ccc(C(=C2CCN(Cc3ccccc3)CC2)c2cccc(C(N)=O)c2)cc1
2. CCN(CC)C(=O)c1ccc(C(=C2CCN(Cc3ccoc3)CC2)c2cccc(C(N)=O)c2)cc1

Result:
1. 9.39
2. 9.44

---

Assignment: determine reported pEC50 for the given compounds.
biological target: delta receptors, mouse brain membranes (Mus musculus); experiment: GTP[γ]35S binding functional assay, homogenised mouse brain
Sequence (P32300 whole entry): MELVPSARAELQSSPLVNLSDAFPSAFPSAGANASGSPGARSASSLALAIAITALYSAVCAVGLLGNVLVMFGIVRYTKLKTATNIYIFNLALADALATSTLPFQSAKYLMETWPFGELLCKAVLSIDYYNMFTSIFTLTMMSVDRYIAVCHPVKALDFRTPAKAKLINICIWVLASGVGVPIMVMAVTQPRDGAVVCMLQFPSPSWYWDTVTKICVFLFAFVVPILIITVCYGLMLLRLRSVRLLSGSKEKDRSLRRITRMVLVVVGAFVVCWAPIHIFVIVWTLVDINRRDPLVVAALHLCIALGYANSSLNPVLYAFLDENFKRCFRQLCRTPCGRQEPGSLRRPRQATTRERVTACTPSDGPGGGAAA
Answers are plain numbers, as −log10 of the molar value.

{"chemical-structure": "CCN(CC)C(=O)c1ccc(C(=C2CCN(Cc3cccs3)CC2)c2cccc(C(N)=O)c2)cc1", "pEC50": 9.09}

// switching to the query compound
Ask: Value lookup for pEC50; key = CCN(CC)C(=O)c1ccc(C(=C2CCN(Cc3ccccc3)CC2)c2cccc(C(N)=O)c2)cc1
Result: 9.27

---

Lab note: IC50 readings collected with cloned human δ receptor (HDELTA) (Homo sapiens) for the following compounds.
Report field: quantity (unit follows the number).

{"chemical-structure": "CCN(CC)C(=O)c1ccc(C(=C2CCN(Cc3ccoc3)CC2)c2cccc(C(N)=O)c2)cc1", "observed-property": "IC50", "result": "0.246 nM"}
{"chemical-structure": "CCN(CC)C(=O)c1ccc(C(=C2CCN(Cc3cccs3)CC2)c2cccc(C(N)=O)c2)cc1", "observed-property": "IC50", "result": "0.373 nM"}

Could you tell me IC50 for each of these compounds? They are listed below.
1. CCN(CC)C(=O)c1ccc(C(=C2CCN(Cc3ccccc3)CC2)c2cccc(C(N)=O)c2)cc1
2. CCN(CC)C(=O)c1ccc(C(=C2CCN(Cc3ccccn3)CC2)c2cccc(C(N)=O)c2)cc1
3. CCN(CC)C(=O)c1ccc(C(=C2CCN(Cc3ccsc3)CC2)c2cccc(C(N)=O)c2)cc1
4. CCN(CC)C(=O)c1ccc(C(=C2CCN(Cc3ccco3)CC2)c2cccc(C(N)=O)c2)cc1

Result:
1. 0.548 nM
2. 0.278 nM
3. 0.235 nM
4. 0.282 nM

---

target: delta receptors, rat brain membranes (Rattus norvegicus); construct: from tissue; host or cells: rat brain homogenate; test: GTP[γ]35S binding functional assay, homogenised rat brain; type: biochemical
observed-property: Emax (%)
Give bare numbers, in %.

// known answers, use as guide
{"chemical-structure": "CCN(CC)C(=O)c1ccc(C(=C2CCN(Cc3cccs3)CC2)c2cccc(C(N)=O)c2)cc1", "target-entity": "delta receptors, rat brain membranes (Rattus norvegicus)", "unit-spec": "%", "Emax": 181}
{"chemical-structure": "CCN(CC)C(=O)c1ccc(C(=C2CCN(Cc3ccoc3)CC2)c2cccc(C(N)=O)c2)cc1", "target-entity": "delta receptors, rat brain membranes (Rattus norvegicus)", "unit-spec": "%", "Emax": 170}
{"chemical-structure": "CCN(CC)C(=O)c1ccc(C(=C2CCN(Cc3ccccc3)CC2)c2cccc(C(N)=O)c2)cc1", "target-entity": "delta receptors, rat brain membranes (Rattus norvegicus)", "unit-spec": "%", "Emax": 179}
{"chemical-structure": "CCN(CC)C(=O)c1ccc(C(=C2CCN(Cc3ccccn3)CC2)c2cccc(C(N)=O)c2)cc1", "target-entity": "delta receptors, rat brain membranes (Rattus norvegicus)", "unit-spec": "%", "Emax": 180}

Ask: Value lookup for Emax; key = CCN(CC)C(=O)c1ccc(C(=C2CCN(Cc3ccco3)CC2)c2cccc(C(N)=O)c2)cc1
Result: 149

---

biological target: cloned human δ receptor (HDELTA) (Homo sapiens, UniProt P41143); experiment: GTP[γ]35S binding functional assay, membranes from HEK-293S cells expressing cloned human opioid receptors
Sequence (P41143 whole entry): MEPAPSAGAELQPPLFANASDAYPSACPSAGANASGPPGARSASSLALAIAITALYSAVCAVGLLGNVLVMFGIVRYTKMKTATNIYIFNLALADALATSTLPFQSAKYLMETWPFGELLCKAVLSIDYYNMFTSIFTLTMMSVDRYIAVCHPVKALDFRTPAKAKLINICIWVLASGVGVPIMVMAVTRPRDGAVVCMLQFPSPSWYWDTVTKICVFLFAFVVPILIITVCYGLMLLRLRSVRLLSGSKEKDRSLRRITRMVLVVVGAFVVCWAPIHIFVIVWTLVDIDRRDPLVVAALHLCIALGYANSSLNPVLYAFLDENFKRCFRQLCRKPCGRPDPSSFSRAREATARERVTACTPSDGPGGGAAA
observed-property: pEC50
Give bare numbers, as −log10 of the molar value.

{"chemical-structure": "CCN(CC)C(=O)c1ccc(C(=C2CCN(Cc3cccs3)CC2)c2cccc(C(N)=O)c2)cc1", "result-number": 9.80}

// switching to the query molecule
Ask: Value lookup for pEC50; key = CCN(CC)C(=O)c1ccc(C(=C2CCN(Cc3ccccc3)CC2)c2cccc(C(N)=O)c2)cc1
Result: 10.04
